What concentration at 0.25 h was measured for each of the following?
EXPERIMENTAL PROTOCOL: Drug level in NMRI mouse plasma at 2 mg/kg, iv after 15 mins
Format: ADME, organism-based
Design: dose 2 mg/kg, route intravenous
Numbers only, in ng/mL.

COMPOUND SMILES	READOUT KIND	UNIT SYMBOL	ENDPOINT RESULT
Nc1nc(N)c2c(OCC3CCN(Cc4ccccc4F)CC3)cccc2n1	concentration at 0.25 h	ng/mL	38
Nc1nc(N)c2c(OCC3CCN(C(=O)c4cccc(Cl)c4)CC3)cccc2n1	concentration at 0.25 h	ng/mL	225
Nc1nc(N)c2c(OCC3CCN(C(=O)c4ccccc4Cl)CC3)cccc2n1	concentration at 0.25 h	ng/mL	240
Nc1nc(N)c2c(OCC3CCN(S(=O)(=O)c4ccccc4F)CC3)cccc2n1	concentration at 0.25 h	ng/mL	279

Next, consider the following compound.
Task: Please look up its concentration at 0.25 h: "Nc1nc(N)c2c(OCC3CCN(Cc4cccc(Cl)c4)CC3)cccc2n1"
Output: 462

---

EXPERIMENTAL PROTOCOL: Drug level in NMRI mouse brain at 2 mg/kg, iv after 15 mins
Type: ADME, organism-based
Set-up: dose 2 mg/kg, route intravenous
MEASUREMENT CONDITIONS: read-out: Drug uptake
Param threshold (1000 ng/g) applies to concentration at 0.25 h; output fulfilled when value >= threshold, not fulfilled when value < threshold.

Please review the entries below; each comes with its answer.
COMPOUND SMILES	LABEL
Nc1nc(N)c2c(OCC3CCN(S(=O)(=O)c4ccccc4F)CC3)cccc2n1	not fulfilled
Nc1nc(N)c2c(OCC3CCN(Cc4ccccc4F)CC3)cccc2n1	fulfilled
Nc1nc(N)c2c(OCC3CCN(Cc4cccc(Cl)c4)CC3)cccc2n1	fulfilled
Nc1nc(N)c2c(OCC3CCN(C(=O)c4cccc(Cl)c4)CC3)cccc2n1	not fulfilled

Task: API: above_or_equal(metric=concentration at 0.25 h, cutoff=1000 ng/g) for item "Nc1nc(N)c2c(OCC3CCN(C(=O)c4ccccc4Cl)CC3)cccc2n1"
Output: not fulfilled

---

EXPERIMENTAL PROTOCOL: AUC (last) in NMRI mouse plasma at 10 mg/kg, po
Type: ADME, organism-based
Set-up: time 0 - last, dose 10 mg/kg, route oral
READOUT KIND: AUC(0-t) (ng·h/mL)
Answers are plain numbers, in ng·h/mL.

Task: Please look up its AUC(0-t): "Nc1nc(N)c2c(OCC3CCN(Cc4ccccc4F)CC3)cccc2n1"
Output: 2670

---

EXPERIMENTAL PROTOCOL: Toxicity against rat hepatoma cells assessed as effect on alpha-glutathione S-transferase
Assay type: cell-based
MEASUREMENT CONDITIONS: read-out: TC50 (the source's name)
What CC50 was measured for each of the following?
Give bare numbers, in µM.

Answered examples (2):
COMPOUND	ENDPOINT RESULT
Nc1nc(N)c2c(OCc3ccc(Cl)cc3)cccc2n1	71
CC(Oc1cccc2nc(N)nc(N)c12)c1cccc(Cl)c1 (racemic)	55

Task: Please look up its CC50: "Nc1nc(N)c2c(OCc3cccc(Cl)c3)cccc2n1"
Output: 29
